System: NSCLC
Experimental Protocol: Growth inhibitory concentration dissolved in DMSO against human NSCLC cell line at 10E-4 M concentration
Type: functional
Set-up: unit not given here
Readout: GI50

> print(dat)
                              line.notation  readout  numeric.readout
1  Cc1cn2c(/C=C3/C(=O)Nc4ccc(Cl)cc43)c(C)nc2s1     GI50             6.17
2  COc1ccc2c(c1)/C(=C\c1c(C)nc3sc(C)cn13)C(=O)N2C     GI50             5.11
3  COc1cc2c(cc1C)NC(=O)/C2=C/c1c(C)nc2sc(C)cn12     GI50             4.24
4  Cc1cn2c(/C=C3/C(=O)Nc4ccc(O)cc43)c(C)nc2s1     GI50              5.4

====

System: Renal cell
Experimental Protocol: Growth inhibitory concentration dissolved in DMSO against human Renal cell line at 10E-4 M concentration
Type: functional
Design: unit not given here
Overview of recorded GI50 for various compounds
Readout: GI50

> print(dat)
                              line.notation  numeric.readout
1  Cc1cn2c(/C=C3/C(=O)Nc4ccc(O)cc43)c(C)nc2s1              5.3
2  COc1cc2c(cc1C)NC(=O)/C2=C/c1c(C)nc2sc(C)cn12             4.09
3  COc1ccc2c(c1)/C(=C\c1c(C)nc3sc(C)cn13)C(=O)N2C             5.32
4  Cc1cn2c(/C=C3/C(=O)Nc4ccc(Cl)cc43)c(C)nc2s1             6.54
